- Test system: Tocilizumab
- protocol: Microtiter plate chromatography of resins, Tocilizumab (bound, yield)
- Assay type: binding, humanized
- assay_setup: mass eluted / mass injected
Item-by-item account of Tocilizumab Yield (%)
reported_metric: Tocilizumab Yield (%)

compound | experimental_target | unit_annotation | val
Cn1nc(NC(=O)c2cccc(C(=O)NCCCN)c2)c2ccccc21 [Ligand L71] | Tocilizumab | % | 49
COc1ccc(NC(=O)c2cn3ccsc3n2)cc1C(=O)NCCOCCOCC(=O)NCCOCCOCC(=O)NCCCN [Ligand L66] | Tocilizumab | % | 53
NCCCNC(=O)c1cccc(C(=O)Nc2ncc(-c3ccccc3)s2)c1 [Ligand L74] | Tocilizumab | % | 91
NCCCNC(=O)c1cccc(C(=O)Nc2nc3ccccc3s2)c1 [Ligand L72] | Tocilizumab | % | 93
COc1ccc(NC(=O)c2cn3ccsc3n2)cc1C(=O)NCCOCCOCC(=O)NCCCN [Ligand L77] | Tocilizumab | % | 80
COc1ccc(NC(=O)c2cn3ccsc3n2)cc1C(=O)NCCCCCC(=O)NCCOCCOCCN [Ligand L76] | Tocilizumab | % | 89
COc1ccc(NC(=O)c2cc(-c3ccco3)n(C)n2)cc1C(=O)NCCOCCOCC(=O)NCCOCCOCC(=O)NCCCN [Ligand L65] | Tocilizumab | % | 71
NCCCNC(=O)c1cccc(C(=O)Nc2nc(-c3ccccc3)cs2)c1 [Ligand L73] | Tocilizumab | % | 95
COc1ccc(NC(=O)c2cn3ccsc3n2)cc1C(=O)NCCOCCOCCNC(=O)NCCOCCOCCN [Ligand L69] | Tocilizumab | % | 73
COc1ccc(NC(=O)c2cn3ccsc3n2)cc1C(=O)NCCOCCOCC(=O)NCCCCCCN [Ligand L78] | Tocilizumab | % | 94

Data origin: patent US20130131321A1
